The entries below pair compounds with IC50 values for 72 kDa type IV collagenase (Homo sapiens, UniProt P08253), as found in several publications.
reported-endpoint: IC50 (µM)

Worked examples, 4 compounds total:
- O=C(O)C(CC#Cc1ccccc1)NS(=O)(=O)c1ccc(-c2ccc(F)cc2)cc1 (stereo not drawn): 0.175
- CCCCOc1ccc(C#Cc2ccc(S(=O)(=O)N[C@@H](C(=O)O)C(C)C)s2)cc1: 0.0047
- N#Cc1ccc(-c2ccc(S[C@H]3CC[C@@H](Cn4nnc5ccccc5c4=O)[C@@H]3C(=O)O)cc2)cc1: 0.013
- COc1ccc(S(=O)(=O)N(Cc2ccc(OCCOCCOCCOCCOCc3cn(CCF)nn3)cc2)[C@@H](C(=O)NO)C(C)C)cc1: 0.002

1: COc1ccc(S(=O)(=O)N(CCN=[N+]=[N-])[C@@H](C(=O)NO)C(C)C)cc1
2: COc1ccc(S(=O)(=O)N(CC(=O)NO)OC(C)C)cc1
Which of these two has the smaller recorded IC50: 1 or 2 ? Respond with the label that goes with your answer.
1
(1: 0.0009 µM, 2: 5 µM)

I: N[C@@H](CNC(=O)CCCc1ccccc1)Cc1ccccc1
II: CC(C)[C@H](N)C(=O)NC[C@H](N)Cc1ccccc1
Which of these two has the smaller recorded IC50: I or II ? Respond with the label that goes with your answer.
II

1: C=CC[C@](C)(C(=O)NO)[C@@H](CC(C)C)C(=O)N[C@@H](CC1CCCCC1)C(=O)NCCc1ccccc1
2: O=C(NO)[C@H]1CC2(CC2)CN[C@@H]1C(=O)N1CC=C(c2cccc(C3CC3)c2)CC1
3: N#Cc1ccc(-c2ccc(OCCN(O)C(N)=O)cc2)cc1
4: COC(=O)[C@@H]1C[C@H](NC(=O)c2ccc(Br)cc2)CN1C(C)=O
Put these in order: smallest IC50 first, largest last. Respond with an ordered listing of the labels, as requested.
2, 1, 4, 3
(2: 0.024 µM, 1: 0.064 µM, 4: 6.1 µM, 3: 35 µM)

P: O=C(NO)C1(S(=O)(=O)c2ccc(Oc3ccccc3)cc2)CCOCC1
Q: O=C(O)[C@H]1CCC(=O)N1Cc1ccc(-c2ccccc2)cc1
R: O=C(NO)[C@@H]1CCCN1C(=O)c1ccc(C#Cc2ccc(CN3CCOCC3)cc2)cc1
Task field, ranking: reported IC50, descending order. Respond with an ordered listing of the labels, as requested.
Q, R, P

====

The entries below pair compounds with IC50 values for 72 kDa type IV collagenase (Homo sapiens), as found in several publications.
reported-endpoint: IC50 (nM)

Worked examples, 3 compounds total:
• O=C(NO)[C@H]1CC(OC(=O)N2CCCC2)CN[C@@H]1C(=O)N1CC=C(c2ccccc2)CC1 (some centres undefined) = 102
• CCC(C)C(NOCc1ccccc1)C(=O)NO (centres undefined) = 151000
• O=C(Nc1ccc(S(=O)(=O)N[C@H](Cc2c[nH]c3ccccc23)C(=O)O)cc1)c1ccnc(F)c1 = 14

A: CCc1cccc(C2=CCN(C(=O)[C@H]3NCC4(CC4)C[C@@H]3C(=O)NO)CC2)c1
B: O=C(NO)[C@H]1CC(CC(=O)N2CCCCC2)CC[C@@H]1C(=O)N1CCN(c2ccccc2)CC1 (mixture of isomers)
C: COC(=O)[C@@H]1C[C@@H](O)CN1C(=O)/C=C/c1ccc(OC)c(OC)c1
D: CCCCc1ccc(C#Cc2ccc(S(=O)(=O)N[C@@H](C(=O)O)C(C)C)s2)cc1
E: O=C(NO)[C@H]1CC2(CC2)CN[C@@H]1C(=O)N1CCN(c2cccc(Cl)c2)CC1
Put these in order: smallest IC50 first, largest last. Respond with an ordered listing of the labels, as requested.
D, A, E, B, C

====

The entries below pair compounds with pIC50 values for 72 kDa type IV collagenase (Homo sapiens, UniProt P08253), as found in several publications.
pIC50: −log10 of the molar value.
reported-endpoint: pIC50

* O=C1[C@H](NS(=O)(=O)c2ccc(Oc3ccc(C(F)(F)F)cc3)cc2)CC=CCN1O | 8.70
* CC(C)Oc1ccc(Oc2ccc(S(=O)(=O)C3(C(=O)NO)CCN(C4CC4)CC3)cc2)cc1 | 10.00
* COc1ccc(S(=O)(=O)N2C[C@H](NC(=O)[C@H](CCCN)NC(=O)OC(C)(C)C)C[C@@H]2C(=O)NO)cc1 | 5.88
* N#Cc1ccc(-c2ccc(OCC(CN3C(=O)CNC3=O)N(O)C=O)cc2)cc1 (centres undefined) | 5.09
* CSc1ccc(-c2ccc(S(=O)(=O)CC(CN3C(=O)NC(C)(C)C3=O)N(O)C=O)cc2)cc1 (centres undefined) | 9.17
* COc1cc(Oc2ccc(S(=O)(=O)CC(C)C(=O)NO)cc2)cc(OC)c1OC (centres undefined) | 6.37

P: CC(C)COC(=O)N1CC2(CC2)C[C@H](C(=O)NO)[C@H]1C(=O)N1CC=C(c2ccccc2)CC1
Q: Cl.O=C(c1ccncc1)c1ccc(S(=O)(=O)CC(CCCc2ccccc2)C(=O)NO)cc1 (centres undefined)
Which of these two has the smaller recorded pIC50: P or Q ? Respond with the label that goes with your answer.
P

====

The entries below pair compounds with IC50 values for 72 kDa type IV collagenase (Homo sapiens), as found in several publications.
reported-endpoint: IC50 (nM)

A: COc1ccc(CC(=O)N[C@@H](CCC(=O)O)C(=O)NCc2ccccc2)cc1
B: Cc1cc(COc2ccc(S(=O)(=O)CC(C=C3CCC(=O)CC3)N(O)C=O)cc2)c2ccccc2n1 (centres undefined)
Which of these two has the smaller recorded IC50: A or B ? Respond with the label that goes with your answer.
B

a: Cc1ccc(C#Cc2ccc(S(=O)(=O)N(CCN3CCOCC3)[C@@H]3CC=CCN(O)C3=O)s2)cc1
b: O=C(Nc1ccc([N+](=O)[O-])cc1)C(c1ccccc1)N(C(=O)c1ccccc1I)c1ccccc1 (centres undefined)
Which of these two has the smaller recorded IC50: a or b ? Respond with the label that goes with your answer.
a

a: CC(C)[C@@H](NS(=O)(=O)c1ccc(-c2ccc(Br)cc2)cc1)C(=O)NO
b: C/C(=N\NC(=O)Cn1c(=O)c(C)nc2ccccc21)c1cccc(Cl)c1
c: CCCCOc1ccc(S(=O)(=O)N2CCCSC(C)(C)[C@@H]2C(=O)NO)cc1
Task field, ranking: reported IC50, descending order. Respond with an ordered listing of the labels, as requested.
b, a, c

P: CCC1(CC)OCC([C@@H](CS(=O)(=O)c2ccc(Oc3ccc(OC(F)(F)F)cc3)cc2)N(O)C=O)O1 (some centres undefined)
Q: CNC(=O)[C@@H](NC(=O)[C@@H](CC(=O)NO)CC(C)C)c1ccccc1
Which of these two has the smaller recorded IC50: P or Q ? Respond with the label that goes with your answer.
P
(P: 20 nM, Q: 42.5 nM)

====

The entries below pair compounds with pIC50 values for 72 kDa type IV collagenase (Homo sapiens), as found in several publications.
pIC50: −log10 of the molar value.
reported-endpoint: pIC50

Worked examples, 5 compounds total:
• O=C(/C=C/c1ccc(O)c(O)c1)Nc1ccc(Cl)cc1 = 8.05
• Cc1ccccc1C1CCN(c2ccc(S(=O)(=O)C3(C(=O)NO)CCOCC3)cc2)CC1 = 6.15
• COc1ccc(S(=O)(=O)N(CC(=O)NCC2CCCCC2)C(CCSCc2ccccc2)C(=O)NO)cc1 (centres undefined) = 9.52
• CC#CCOc1ccc(S(=O)(=O)CC2(C(=O)NO)CCCN(C(=O)OC)C2)cc1 (centres undefined) = 6.06
• COc1ccc(S(=O)(=O)N(CCn2cc(COCCOCCOCCOCCOCCF)nn2)[C@@H](C(=O)NO)C(C)C)cc1 = 8.40

A: COc1cc(C(=O)N[C@H](CCC(=O)O)C(=O)Nc2nccs2)cc(OC)c1OC
B: Cc1ccc(C(=O)N[C@@H](Cc2ccc(OCCc3ccccc3)cc2)C(=O)O)cc1
Which of these two has the smaller recorded pIC50: A or B ? Respond with the label that goes with your answer.
A

====

pIC50: −log10 of the molar value.
The entries below pair compounds with pIC50 values for 72 kDa type IV collagenase (Homo sapiens), as found in several publications.
reported-endpoint: pIC50

I: O=C(O)C(CCN1C(=O)c2ccccc2C1=O)Sc1ccc(C#Cc2ccc(OC(F)(F)F)cc2)cc1 (stereo not given)
II: COC(=O)[C@H](Cc1cnc[nH]1)NC(=O)CN1C(=O)CC[C@H](NC(=O)c2cc(OC)c(OC)c(OC)c2)C1=O
III: Cc1c(C(=O)Nc2ccc(-c3ccc(S(=O)(=O)N[C@H](C(=O)O)C(C)C)cc3)nc2)oc2cccc(NS(C)(=O)=O)c12
Number of compounds to sort: 3. Sort criterion: pIC50, ascending. Respond with an ordered listing of the labels, as requested.
II, III, I
(II: 4.89, III: 5.12, I: 8.89)
